SYSTEM: Recombinant human c-KIT kinase (Homo sapiens)
Sequence (P10721 26-976): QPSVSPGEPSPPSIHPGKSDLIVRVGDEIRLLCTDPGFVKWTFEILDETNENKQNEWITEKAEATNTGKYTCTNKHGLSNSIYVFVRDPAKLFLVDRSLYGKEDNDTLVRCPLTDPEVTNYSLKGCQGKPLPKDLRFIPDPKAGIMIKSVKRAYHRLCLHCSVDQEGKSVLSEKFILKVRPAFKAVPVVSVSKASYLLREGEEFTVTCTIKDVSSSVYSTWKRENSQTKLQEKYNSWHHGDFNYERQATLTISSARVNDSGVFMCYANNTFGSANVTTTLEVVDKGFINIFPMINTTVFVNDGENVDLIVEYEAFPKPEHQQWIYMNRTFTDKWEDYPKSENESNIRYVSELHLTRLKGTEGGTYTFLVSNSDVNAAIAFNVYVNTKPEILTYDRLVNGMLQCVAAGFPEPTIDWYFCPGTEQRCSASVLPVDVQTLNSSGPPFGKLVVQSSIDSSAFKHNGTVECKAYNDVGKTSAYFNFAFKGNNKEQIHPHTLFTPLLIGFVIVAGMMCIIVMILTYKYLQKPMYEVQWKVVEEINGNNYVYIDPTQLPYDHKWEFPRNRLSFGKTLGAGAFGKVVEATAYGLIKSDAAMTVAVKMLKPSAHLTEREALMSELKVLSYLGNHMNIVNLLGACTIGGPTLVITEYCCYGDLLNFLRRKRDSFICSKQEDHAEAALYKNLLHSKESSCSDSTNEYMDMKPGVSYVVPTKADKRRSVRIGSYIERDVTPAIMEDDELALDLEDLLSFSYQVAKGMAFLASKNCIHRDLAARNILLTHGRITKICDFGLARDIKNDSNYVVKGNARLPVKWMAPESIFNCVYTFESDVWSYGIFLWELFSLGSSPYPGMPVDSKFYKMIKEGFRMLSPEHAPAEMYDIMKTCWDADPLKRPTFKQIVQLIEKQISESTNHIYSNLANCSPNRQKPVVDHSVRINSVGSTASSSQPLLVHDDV
PROTOCOL TEXT: c-KIT Kinase Chemiluminescence Assay (ADP-Glo)
ASSAY CONTEXT: recombinant human c-KIT 30-40 nM, ATP 50 μM, polyEY substrate, ADP-Glo luminescence
Description: Staurosporine (AM-2282) and Imatinib (STI571) were purchased from Selleck Chemicals LLC (Houston, TX). The c-KIT reference compound THB001 (EP-053504) was synthesized by Enanta Pharmaceuticals, Inc. (Watertown, MA). The c-KIT Kinase Enzyme System (V4498) and ADP-Glo™ Kinase Assay kit (V6930) were purchased from Promega (Madison, WI). […] Envision Multimode Plate Reader (2104/464466) and ProxiPlate-384 Plus White 384-shallow well microplates (6008280) were purchased from PerkinElmer (Waltham, MA). […]
pIC50: −log10 of the molar value.
Known pIC50 of a selection of molecules
OUTCOME MEASURE: pIC50

{"columns": ["MOLECULE", "OUTCOME MEASURE", "MEASURED RESULT"],
 "data": [
  ["Cc1ccc(-c2nc3ccc(C(F)(F)F)cc3[nH]2)cc1NC(=O)c1cnc2ccccn12 [Example 11-9]", "pIC50", "> 7.00"],
  ["Cc1ccc(-c2nc3ccccc3s2)cc1NC(=O)c1cnc2ccccn12 [Example 11-4]", "pIC50", "> 7.00"],
  ["Cc1ccc(-c2nnn(C3CC3)n2)cc1NC(=O)c1cnc2ccccn12 [Example 2]", "pIC50", "6.00 to 7.00"],
  ["Cc1ccc(-c2ncc(C3CC(F)(F)C3)n2COCC[Si](C)(C)C)cc1NC(=O)c1cnc2ccccn12 [Example 11-11]", "pIC50", "< 6.00"],
  ["Cc1ccc(-c2nc3cc(F)ccn3n2)cc1NC(=O)c1cnc2ccccn12 [Example 6-6]", "pIC50", "> 7.00"],
  ["Cc1ccc(-c2nc3ccccc3o2)cc1NC(=O)c1cnc2ccccn12 [Example 11-3]", "pIC50", "6.00 to 7.00"],
  ["Cc1ccc(-c2cn3c(n2)CCC3)cc1NC(=O)c1cnc2ccccn12 [Example 6-5]", "pIC50", "6.00 to 7.00"],
  ["Cc1ccc(-c2nc3cc(C4CC4)ccn3n2)cc1NC(=O)c1cnc2ccccn12 [Example 6-23]", "pIC50", "> 7.00"],
  ["Cc1ccc(-c2nnc(C3CC(F)(F)C3)s2)cc1NC(=O)c1cnc2ccccn12 [Example 1-1]", "pIC50", "> 7.00"],
  ["Cc1ccc(-c2c[nH]c(C3CC(F)(F)C3)n2)cc1NC(=O)c1cnc2ccccn12 [Example 11]", "pIC50", "6.00 to 7.00"],
  ["Cc1ccc(-c2cn(C3CC(F)(F)C3)nn2)cc1NC(=O)c1cnc2ccccn12 [Example 7]", "pIC50", "> 7.00"],
  ["Cc1ccc(-c2coc(C3CC(F)(F)C3)n2)cc1NC(=O)c1cnc2ccccn12 [Example 10]", "pIC50", "> 7.00"],
  ["Cc1ccc(-c2coc([C@H]3C[C@@H]3F)n2)cc1NC(=O)c1cnc2ccccn12 [Example 11-1]", "pIC50", "6.00 to 7.00"],
  ["Cc1ccc(-c2nc3ccc(F)cc3o2)cc1NC(=O)c1cnc2ccccn12 [Example 11-5]", "pIC50", "6.00 to 7.00"],
  ["Cc1ccc(-n2ncc3ccccc32)cc1NC(=O)c1cnc2ccccn12 [Example 11-13]", "pIC50", "< 6.00"],
  ["Cc1ccc(-c2cn3c(n2)CCCC3)cc1NC(=O)c1cnc2ccccn12 [Example 6-4]", "pIC50", "6.00 to 7.00"],
  ["Cc1ccc(-c2nc3cccc(C(F)(F)F)n3n2)cc1NC(=O)c1cnc2ccccn12 [Example 6-10]", "pIC50", "6.00 to 7.00"],
  ["Cc1ccc(-n2nnc(C3CC(F)(F)C3)n2)cc1NC(=O)c1cnc2ccccn12 [Example 8]", "pIC50", "> 7.00"],
  ["Cc1ccc(-c2nc3n(n2)CCN(C(=O)[C@H]2C[C@@H]2F)C3)cc1NC(=O)c1cnc2ccccn12 [Example 6-18]", "pIC50", "6.00 to 7.00"],
  ["Cc1ccc(-n2cc(C3CC(F)(F)C3)nn2)cc1NC(=O)c1cnc2ccccn12 [Example 11-12]", "pIC50", "> 7.00"],
  ["Cc1ccc(-c2nc3n(n2)CCN(C(=O)[C@H]2[C@@H]4CC(F)(F)C[C@@H]42)C3)cc1NC(=O)c1cnc2ccccn12 [Example 6-20]", "pIC50", "< 6.00"],
  ["Cc1ccc(-c2nc3ccc(C4CC4)cn3n2)cc1NC(=O)c1cnc2ccccn12 [Example 6-24]", "pIC50", "> 7.00"],
  ["Cc1ccc(-c2nc3n(n2)C[C@H](C(F)(F)F)CC3)cc1NC(=O)c1cnc2ccccn12 [Example 6-21]", "pIC50", "> 7.00"],
  ["Cc1ccc(-n2nnc(-c3ccc(F)cc3)n2)cc1NC(=O)c1cnc2ccccn12 [Example 9-1]", "pIC50", "6.00 to 7.00"],
  ["Cc1ccc(-c2nc(C3CC(F)(F)C3)cs2)cc1NC(=O)c1cnc2ccccn12 [Example 4]", "pIC50", "> 7.00"],
  ["Cc1ccc(-c2nc3cc(C(F)(F)F)ccn3n2)cc1NC(=O)c1cnc2ccccn12 [Example 6-14]", "pIC50", "> 7.00"],
  ["Cc1ccc(-c2nnc([C@H]3C[C@@H]3F)s2)cc1NC(=O)c1cnc2ccccn12 [Example 1]", "pIC50", "> 7.00"],
  ["Cc1ccc(-c2nc3ccc(Cl)cn3n2)cc1NC(=O)c1cnc2ccccn12 [Example 6-3]", "pIC50", "> 7.00"]
]}
